Data provenance is patent US20180201592A1.

Tested on: A. terreus
Assay: Minimum inhibitory concentration, RPMI medium
Format: cell-based
Settings: banded MIC grade
metric_name: MIC grade, A. TERREUS, RPMI media

Recorded MIC grade, A. TERREUS, RPMI media, per entry:
- molecule_smiles: "NC1=NN=C(CCCCOCc2ccc(F)cc2F)CS1"
  MIC grade, A. TERREUS, RPMI media: "4 (4: <1 mg/L)"
- molecule_smiles: "NC1=NN=C(CCCCOCc2ccccc2C(F)(F)F)CS1"
  MIC grade, A. TERREUS, RPMI media: "1 (1: ≥20 mg/L)"
- molecule_smiles: "NC1=NN=C(CCCCOCc2cccc(CCc3ccccc3)c2)CS1"
  MIC grade, A. TERREUS, RPMI media: "1 (1: ≥20 mg/L)"

# map each molecule to its MIC grade, A. TERREUS, RPMI media
1. NC1=NN=C(CCCCOCc2cc(Cl)cc(Cl)c2)CS1
2. NC1=NN=C(CCCCSCc2ccc(Cl)cc2)CS1
3. NC1=NN=C(CCCCOCc2c(F)cccc2Cl)CS1

Response:
2 (2: 5-20 mg/L)
2 (2: 5-20 mg/L)
2 (2: 5-20 mg/L)

Respectfully, I request MIC grade, A. TERREUS, RPMI media for each entry included below.
1. CCCCc1ccc(COCCCCC2=NN=C(N)SC2)cc1
2. CC(=O)OCCCCC1=NN=C(N)SC1
3. CCc1cccc(COCCCCC2=NN=C(N)SC2)c1

Response:
["1 (1: ≥20 mg/L)", "3 (3: 1-5 mg/L)", "2 (2: 5-20 mg/L)"]
